# ASSAY TARGET: Histone deacetylase 2 (Homo sapiens, UniProt Q92769)
# Sequence (Q92769 whole entry): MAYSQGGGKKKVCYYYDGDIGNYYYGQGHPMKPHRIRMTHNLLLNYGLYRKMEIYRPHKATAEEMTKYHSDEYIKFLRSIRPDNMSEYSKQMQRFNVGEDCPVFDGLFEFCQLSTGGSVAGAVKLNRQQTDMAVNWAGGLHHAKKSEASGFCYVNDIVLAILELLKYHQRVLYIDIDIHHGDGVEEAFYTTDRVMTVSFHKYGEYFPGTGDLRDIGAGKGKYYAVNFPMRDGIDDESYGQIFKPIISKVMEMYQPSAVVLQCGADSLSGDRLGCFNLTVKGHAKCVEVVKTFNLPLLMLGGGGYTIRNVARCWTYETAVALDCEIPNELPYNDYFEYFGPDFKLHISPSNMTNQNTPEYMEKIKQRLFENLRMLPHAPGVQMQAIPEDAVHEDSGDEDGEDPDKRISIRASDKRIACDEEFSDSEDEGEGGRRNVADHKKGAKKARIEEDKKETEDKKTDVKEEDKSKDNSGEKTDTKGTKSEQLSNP
# TEST PROTOCOL: Inhibition of HDAC2 (unknown origin)
EXPERIMENTAL ENDPOINT: pIC50
Keep it numeric: pIC50 is minus log10 of the concentration in mol/L.

Reported pIC50 (Histone deacetylase 2 (Homo sapiens, UniProt Q92769)) for entry `CC(C)(C)OC(=O)Nc1ccc(-c2cc(NC(=O)CCCCCCC(=O)NO)no2)cc1` is 6.60

---

# ASSAY TARGET: Protein deacetylase HDAC6 (Homo sapiens, UniProt Q9UBN7)
# Sequence (Q9UBN7 whole entry): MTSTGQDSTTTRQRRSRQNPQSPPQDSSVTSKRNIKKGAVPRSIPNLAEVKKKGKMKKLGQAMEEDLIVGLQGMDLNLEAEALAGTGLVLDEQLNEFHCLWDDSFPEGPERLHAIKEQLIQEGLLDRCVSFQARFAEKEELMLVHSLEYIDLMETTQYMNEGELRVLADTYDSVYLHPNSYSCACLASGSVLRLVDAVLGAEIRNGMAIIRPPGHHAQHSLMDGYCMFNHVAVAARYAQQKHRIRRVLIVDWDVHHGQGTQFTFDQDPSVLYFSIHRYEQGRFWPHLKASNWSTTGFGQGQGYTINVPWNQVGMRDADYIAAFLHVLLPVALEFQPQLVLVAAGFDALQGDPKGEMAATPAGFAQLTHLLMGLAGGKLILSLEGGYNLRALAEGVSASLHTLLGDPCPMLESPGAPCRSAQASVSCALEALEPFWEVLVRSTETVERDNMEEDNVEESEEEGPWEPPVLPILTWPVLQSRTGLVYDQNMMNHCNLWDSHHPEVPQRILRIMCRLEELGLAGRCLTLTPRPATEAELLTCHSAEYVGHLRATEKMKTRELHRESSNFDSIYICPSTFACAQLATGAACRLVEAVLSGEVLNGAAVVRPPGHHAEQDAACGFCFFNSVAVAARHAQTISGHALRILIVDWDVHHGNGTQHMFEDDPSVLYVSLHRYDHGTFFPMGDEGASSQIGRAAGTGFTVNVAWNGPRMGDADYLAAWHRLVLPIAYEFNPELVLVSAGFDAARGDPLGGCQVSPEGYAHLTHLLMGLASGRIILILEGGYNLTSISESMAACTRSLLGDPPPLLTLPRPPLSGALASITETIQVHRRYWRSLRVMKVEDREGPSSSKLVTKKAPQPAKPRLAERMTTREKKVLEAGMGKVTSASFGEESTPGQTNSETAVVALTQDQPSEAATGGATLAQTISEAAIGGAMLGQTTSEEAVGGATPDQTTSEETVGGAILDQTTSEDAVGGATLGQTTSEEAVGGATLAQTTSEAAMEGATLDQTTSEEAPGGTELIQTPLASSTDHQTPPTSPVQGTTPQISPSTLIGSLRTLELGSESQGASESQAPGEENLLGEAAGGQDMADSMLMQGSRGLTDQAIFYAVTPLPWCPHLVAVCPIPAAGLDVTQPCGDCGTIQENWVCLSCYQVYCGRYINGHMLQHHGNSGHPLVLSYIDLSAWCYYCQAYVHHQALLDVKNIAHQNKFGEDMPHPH
Output Satisfied for records whose IC50 is lower than 70 nM, Not satisfied for records at or above 70 nM.

Use the examples below as a reference point.
[
  {
    "MOLECULE": "CN1CC(=O)N(Cc2ccc(C(=O)NO)cc2)C1=O",
    "ASSIGNED CATEGORY": "Not satisfied"
  },
  {
    "MOLECULE": "CN1C(=O)N(Cc2ccc(C(=O)NO)cc2)C(=O)C1Cc1ccccc1 (racemic)",
    "ASSIGNED CATEGORY": "Not satisfied"
  },
  {
    "MOLECULE": "Cc1ccc(CN2C(=O)N(Cc3ccc(C(=O)NO)cc3)C(=O)C2Cc2ccccc2)cc1 (racemic)",
    "ASSIGNED CATEGORY": "Satisfied"
  },
  {
    "MOLECULE": "O=C(NO)c1ccc(CN2C(=O)C(Cc3ccccc3)N(Cc3ccccn3)C2=O)cc1 (racemic)",
    "ASSIGNED CATEGORY": "Satisfied"
  },
  {
    "MOLECULE": "O=C(NO)c1ccc(CN2C(=O)CN(Cc3ccc4ccccc4c3)C2=O)cc1",
    "ASSIGNED CATEGORY": "Satisfied"
  }
]

Exercise: Just wondering, is IC50 of `Cc1ccc(CN2CC(=O)N(Cc3ccc(C(=O)NO)cc3)C2=O)cc1` below 70 nM?
Key: Satisfied

Exercise: Strictly below 70 nM: is that where IC50 of O=C(NO)c1ccc(CN2C(=O)C(Cc3ccccc3)N(CCc3ccccc3)C2=O)cc1 (racemic) sits?
Key: Satisfied

Exercise: For this molecule, is IC50 lower than 70 nM? CC1(c2ccccc2)NC(=O)N(Cc2ccc(C(=O)NO)cc2)C1=O (racemic)
Key: Not satisfied

Exercise: I wonder whether CCCN1C(=O)N(Cc2ccc(C(=O)NO)cc2)C(=O)C1Cc1ccccc1 (racemic) has IC50 below 70 nM. Can you tell?
Key: Satisfied

Exercise: Field: below-cutoff. Rule: recorded IC50 strictly less than 70 nM. Subject: O=C(NO)c1ccc(CN2C(=O)NC(CCc3ccccc3)(c3ccccc3)C2=O)cc1 (racemic)
Key: Satisfied

Exercise: Hello, I'm reviewing records and need to know if IC50 of CC(C)(C)c1ccc(CN2C(=O)N(Cc3ccc(C(=O)NO)cc3)C(=O)C2Cc2ccccc2)cc1 (racemic) is below 70 nM. Could you check?
Key: Not satisfied

---

This section presents compounds with their documented IC50 values.
# ASSAY TARGET: Histone deacetylase 1 (Homo sapiens)
# Sequence (Q13547 whole entry): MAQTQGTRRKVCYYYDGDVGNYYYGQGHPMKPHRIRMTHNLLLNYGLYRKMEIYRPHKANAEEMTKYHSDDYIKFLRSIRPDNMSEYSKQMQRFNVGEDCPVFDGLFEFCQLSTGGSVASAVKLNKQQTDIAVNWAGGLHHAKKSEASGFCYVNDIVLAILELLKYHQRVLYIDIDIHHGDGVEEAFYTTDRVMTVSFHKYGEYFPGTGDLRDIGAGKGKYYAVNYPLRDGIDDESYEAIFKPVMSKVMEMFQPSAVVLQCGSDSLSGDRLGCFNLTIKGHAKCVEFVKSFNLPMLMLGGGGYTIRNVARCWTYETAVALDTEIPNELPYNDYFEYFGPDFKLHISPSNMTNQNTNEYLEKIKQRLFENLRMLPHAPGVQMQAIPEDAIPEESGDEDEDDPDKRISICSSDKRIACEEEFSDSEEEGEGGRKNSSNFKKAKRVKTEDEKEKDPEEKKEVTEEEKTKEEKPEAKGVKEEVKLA
# TEST PROTOCOL: Inhibition of HDAC1 (unknown origin) using Ac-LeuGlyLys(Ac)-AMC as substrate preincubated for 10 mins followed by substrate addition and further incubated for incubated for 1 hrs by fluorescence microtiter plate reader assay
Field: numeric (µM). Do not append units.

[
  {
    "COMPOUND": "O=C(NO)c1ccc(CN2C(=O)C(Cc3ccccc3)N(Cc3ccc(Cl)cc3)C2=O)cc1 (racemic)",
    "RECORDED RESULT": 8.18
  },
  {
    "COMPOUND": "O=C(NO)c1ccc(CN2C(=O)CN(Cc3ccc(Cl)cc3)C2=O)cc1",
    "RECORDED RESULT": 0.863
  },
  {
    "COMPOUND": "O=C(NO)c1ccc(CN2C(=O)C(Cc3ccccc3)N(Cc3cccnc3)C2=O)cc1 (racemic)",
    "RECORDED RESULT": 11.6
  }
]

We now examine a further compound.
Lab note: O=C(NO)c1ccc(CN2C(=O)C(Cc3ccccc3)N(Cc3ccccn3)C2=O)cc1 (racemic) gave IC50 of 3.42

---

# ASSAY TARGET: Histone deacetylase 8 (Homo sapiens)
# Sequence (Q9BY41 whole entry): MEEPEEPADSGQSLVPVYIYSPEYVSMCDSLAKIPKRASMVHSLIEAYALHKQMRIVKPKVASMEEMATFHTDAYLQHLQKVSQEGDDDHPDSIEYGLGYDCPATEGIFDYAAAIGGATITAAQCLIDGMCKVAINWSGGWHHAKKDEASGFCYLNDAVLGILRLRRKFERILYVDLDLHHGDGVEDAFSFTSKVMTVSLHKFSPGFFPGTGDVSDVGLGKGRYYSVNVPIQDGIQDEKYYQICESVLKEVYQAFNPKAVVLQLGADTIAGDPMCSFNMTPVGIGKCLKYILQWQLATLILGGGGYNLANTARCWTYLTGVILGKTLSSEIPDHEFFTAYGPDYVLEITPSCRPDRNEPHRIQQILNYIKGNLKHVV
# TEST PROTOCOL: Inhibition of HDAC8 (unknown origin) using Ac-LeuGlyLys(tfa)-AMC as substrate preincubated for 10 mins followed by substrate addition and further incubated for incubated for 1 hrs by fluorescence microtiter plate reader assay
EXPERIMENTAL ENDPOINT: pIC50
Just the number, please; pIC50 means minus log10 of the concentration in mol/L.

Example results:
[
  {
    "MOLECULE": "O=C(NO)c1ccc(CN2C(=O)CN(Cc3ccc(Cl)cc3)C2=O)cc1",
    "RECORDED RESULT": 6.00
  },
  {
    "MOLECULE": "O=C(NO)c1ccc(CN2C(=O)C(Cc3ccccc3)N(Cc3ccccn3)C2=O)cc1 (racemic)",
    "RECORDED RESULT": 5.11
  },
  {
    "MOLECULE": "O=C(NO)c1ccc(CN2C(=O)C(Cc3ccccc3)N(Cc3ccc(Cl)cc3)C2=O)cc1 (racemic)",
    "RECORDED RESULT": 5.40
  }
]

Now look at this one.
The molecule listed as O=C(NO)c1ccc(CN2C(=O)C(Cc3ccccc3)N(Cc3cccnc3)C2=O)cc1 (racemic) has a reported pIC50 of 5.46

---

# ASSAY TARGET: Histone deacetylase 2 (Homo sapiens)
EXPERIMENTAL ENDPOINT: IC50 (µM)
State the answer as a number, implicitly in µM.

Take a look at these entries with their results.
[
  {
    "COMPOUND": "O=C(NO)c1ccc(CN2C(=O)C(Cc3ccccc3)N(Cc3ccc(Cl)cc3)C2=O)cc1 (racemic)",
    "ASSAY TARGET": "Histone deacetylase 2 (Homo sapiens)",
    "IC50 (µM)": 8.26
  },
  {
    "COMPOUND": "O=C(NO)c1ccc(CN2C(=O)C(Cc3ccccc3)N(Cc3ccccn3)C2=O)cc1 (racemic)",
    "ASSAY TARGET": "Histone deacetylase 2 (Homo sapiens)",
    "IC50 (µM)": 5.08
  },
  {
    "COMPOUND": "O=C(NO)c1ccc(CN2C(=O)C(Cc3ccccc3)N(Cc3cccnc3)C2=O)cc1 (racemic)",
    "ASSAY TARGET": "Histone deacetylase 2 (Homo sapiens)",
    "IC50 (µM)": 12.3
  }
]

Proceeding to the next compound to report its IC50.
Quick note, IC50 for `O=C(NO)c1ccc(CN2C(=O)CN(Cc3ccc(Cl)cc3)C2=O)cc1` landed at 1.08
